system: A498 renal; test: NCI tumour cell line growth inhibition, 48 h
Test readout: TGI

>  <Compound>
Fc1ccc(-c2c(-c3ccncc3)n(CCN3CCOCC3)c3cccnc23)cc1

>  <Test readout>
TGI

>  <Reported>
> 25 µM

$$$$
>  <Compound>
O=c1[nH]nc(Cc2ccc([N+](=O)[O-])cc2)[nH]1

>  <Test readout>
TGI

>  <Reported>
> 100 µM

$$$$
>  <Compound>
CCOC(=O)C1C2C1C1C(C(=O)OCC)C21 (stereo not given)

>  <Test readout>
TGI

>  <Reported>
> 100 µM

$$$$
>  <Compound>
COc1cc2c(cc1OCc1ccccc1)NC(=O)[C@@H]1C[C@@H](O)CN1C2=O

>  <Test readout>
TGI

>  <Reported>
> 100 µM

$$$$
>  <Compound>
CN(NC(=O)/C(=C/C=C/c1ccccc1)NC(=O)c1ccccc1)C1=C(Cl)C(=O)[N+](c2ccccc2)=CC1

>  <Test readout>
TGI

>  <Reported>
> 100 µM

$$$$

* * *

In this section we review reported TGI values for a set of molecules.
test system: SK-MEL-5 melanoma; test: NCI tumour cell line growth inhibition, 48 h
Test readout: TGI

>  <Molecule>
O=C(O)c1c(Cl)c(Cl)c(Cl)c(Cl)c1-c1c2cc(I)c(=O)c(I)c-2oc2c(I)c(O)c(I)cc12

>  <Reported>
68.9 µM

$$$$
>  <Molecule>
C1CN(C23OC4(N5CCOCC5)C5C6CC(C7C6C4C72)C53)CCO1 (stereo not given)

>  <Reported>
> 100 µM

$$$$
>  <Molecule>
Fc1ccc(-c2c(-c3ccncc3)n(CCN3CCOCC3)c3cccnc23)cc1

>  <Reported>
> 25 µM

$$$$
>  <Molecule>
O=C1C(=O)C(CCCO)(CCCO)CCCCCCCCC1(CCCO)CCCO

>  <Reported>
> 100 µM

$$$$
>  <Molecule>
COc1ccccc1OCC(O)CO (stereo not given)

>  <Reported>
> 100 µM

$$$$

* * *

Reported TGI values are given for each entry in this list.
tested on: UACC-257 melanoma; experiment: NCI tumour cell line growth inhibition, 48 h
Test readout: TGI (µM)

>  <Molecule>
CC(=O)OCC1OC(O[C@@H]2C[C@H]3C(C)(C)[C@H](OC(C)=O)CC[C@]3(C)[C@H]3CC[C@@H]4[C@]5(CC[C@@]4(C)[C@@]32C)O[C@@H]([C@H](O)C(C)(C)O)C[C@@H]5C)C(O)C(O)C1O (some centres undefined)

>  <Assay system>
UACC-257 melanoma

>  <Test readout>
TGI

>  <U>
µM

>  <Operator>
=

>  <Reported>
24

$$$$
>  <Molecule>
O=C1CCC(c2ccccc2)(c2ccccc2)CC1

>  <Assay system>
UACC-257 melanoma

>  <Test readout>
TGI

>  <U>
µM

>  <Operator>
>

>  <Reported>
100

$$$$
>  <Molecule>
COc1cc(SC)ccc1C(=O)N1CCCC(C)C1 (centres undefined)

>  <Assay system>
UACC-257 melanoma

>  <Test readout>
TGI

>  <U>
µM

>  <Operator>
>

>  <Reported>
100

$$$$
>  <Molecule>
C=C1C(=O)C23C(CC(OC(C)=O)C1[C@@H]2OC(C)=O)C1(C)C(OC(C)=O)CCC(C)(C)C1C[C@@H]3OC(C)=O (some centres undefined)

>  <Assay system>
UACC-257 melanoma

>  <Test readout>
TGI

>  <U>
µM

>  <Operator>
=

>  <Reported>
3.14

$$$$
